This collection of values is drawn from the supplement of paper PMC11208160.

Test: recombinant UMI read abundance after kanamycin selection (control-corrected) (log10(CPM+1)); higher = more efficient recombination; extreme values may be limits of the assay; sequences stand for … in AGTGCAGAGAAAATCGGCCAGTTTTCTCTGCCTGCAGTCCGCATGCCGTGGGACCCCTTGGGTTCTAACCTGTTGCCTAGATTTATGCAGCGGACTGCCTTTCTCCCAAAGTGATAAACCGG…AGGTTGGTTTCACT; site = the 11-nt donor;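 further: IS621 bridge recombinase in Escherichia coli cells against a fixed T5 target plasmid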
Reported recombinant UMI read abundance (log10) by item:
measurement-kind: recombinant UMI read abundance (log10)

[[record]]
sequence_chain = "ACTAGTGCATGGACCGGTTTTCCCGGTAATCCGTATTTGAT (site ACTAGTGCTAG)"
measurement_kind = "recombinant UMI read abundance (log10)"
numeric_value = 0.00388

[[record]]
sequence_chain = "ATGAAGGCATGGACCGGTTTTCCCGGTAATCCGTATTTGCA (site ATGAAGGCTTG)"
measurement_kind = "recombinant UMI read abundance (log10)"
numeric_value = 2.91

[[record]]
sequence_chain = "AGAGGCACATGGACCGGTTTTCCCGGTAATCCGTATTTGAC (site AGAGGCACTGT)"
measurement_kind = "recombinant UMI read abundance (log10)"
numeric_value = 2.32

[[record]]
sequence_chain = "GTTCGAGCATGGACCGGTTTTCCCGGTAATCCGTATTTGCC (site GTTCGAGCTGG)"
measurement_kind = "recombinant UMI read abundance (log10)"
numeric_value = 1.42

[[record]]
sequence_chain = "ATAGTATCATGGACCGGTTTTCCCGGTAATCCGTATTTGTA (site ATAGTATCTTA)"
measurement_kind = "recombinant UMI read abundance (log10)"
numeric_value = 3.14


###

Experiment: recombinant UMI read abundance after kanamycin selection (control-corrected) (log10(CPM+1)); higher = more efficient recombination; extreme values may be limits of the assay; sequences stand for … in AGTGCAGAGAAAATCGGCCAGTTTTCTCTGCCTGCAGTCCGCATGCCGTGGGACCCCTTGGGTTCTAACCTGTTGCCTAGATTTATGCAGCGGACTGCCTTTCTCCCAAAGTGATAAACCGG…AGGTTGGTTTCACT; site = the 11-nt donor
measurement-kind: recombinant UMI read abundance (log10)

[[record]]
sequence_chain = "GCAGAATCATGGACCGGTTTTCCCGGTAATCCGTATTTGCA (site GCAGAATCTTG)"
numeric_value = 2.13

[[record]]
sequence_chain = "TGTAGGACATGGACCGGTTTTCCCGGTAATCCGTATTTGAA (site TGTAGGACTTT)"
numeric_value = 0.373

[[record]]
sequence_chain = "GCAGAGACATGGACCGGTTTTCCCGGTAATCCGTATTTGCG (site CCAGAGACTCG)"
numeric_value = 2.58

[[record]]
sequence_chain = "CACTATGCATGGACCGGTTTTCCCGGTAATCCGTATTTGCG (site CACTATGCTCG)"
numeric_value = 1.67

[[record]]
sequence_chain = "CTGCTACCATGGACCGGTTTTCCCGGTAATCCGTATTTGTT (site CTGCTACCTAG)"
numeric_value = 0

[[record]]
sequence_chain = "CGATCGACATGGACCGGTTTTCCCGGTAATCCGTATTTGGT (site CGATCGACTAA)"
numeric_value = 0.276

[[record]]
sequence_chain = "CGGAATGCATGGACCGGTTTTCCCGGTAATCCGTATTTGTT (site CGGAATTCTAA)"
numeric_value = 0

[[record]]
sequence_chain = "TAGGAATCATGGACCGGTTTTCCCGGTAATCCGTATTTGGG (site TAGGAATCTCA)"
numeric_value = 0.407

[[record]]
sequence_chain = "ACACCCACATGGACCGGTTTTCCCGGTAATCCGTATTTGAG (site ACACCCACTCT)"
numeric_value = 1.37

[[record]]
sequence_chain = "TATCTGGCATGGACCGGTTTTCCCGGTAATCCGTATTTGTG (site TATCTGGCTCA)"
numeric_value = 0.0196

[[record]]
sequence_chain = "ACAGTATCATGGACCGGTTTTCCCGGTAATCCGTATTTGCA (site GCAGTATCTAG)"
numeric_value = 0.0509

[[record]]
sequence_chain = "AGTCCTTCATGGACCGGTTTTCCCGGTAATCCGTATTTGGG (site AGTCCTTCTCC)"
numeric_value = 0.0141

[[record]]
sequence_chain = "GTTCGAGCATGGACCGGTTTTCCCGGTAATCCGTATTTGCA (site GTTCTAGCTTG)"
numeric_value = 0.494

[[record]]
sequence_chain = "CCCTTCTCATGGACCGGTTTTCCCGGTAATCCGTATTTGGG (site CCGTTCTCTCC)"
numeric_value = 0

[[record]]
sequence_chain = "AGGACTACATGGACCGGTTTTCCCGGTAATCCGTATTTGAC (site AGAACTACTGT)"
numeric_value = 2.18

[[record]]
sequence_chain = "CAGTTGACATGGACCGGTTTTCCCGGTAATCCGTATTTGGG (site CAGTCGACTCC)"
numeric_value = 0.0208

[[record]]
sequence_chain = "CAAGTTACATGGACCGGTTTTCCCGGTAATCCGTATTTGGG (site CAAGTTACTCC)"
numeric_value = 0.861

[[record]]
sequence_chain = "TGTGCACCATGGACCGGTTTTCCCGGTAATCCGTATTTGAC (site TGTCCACCTGT)"
numeric_value = 0.0317

